This listing pairs compounds with measured log10(IC50).
# test.target: Human recombinant PTP1B (Homo sapiens, UniProt P18031)
# Sequence (P18031 1-435): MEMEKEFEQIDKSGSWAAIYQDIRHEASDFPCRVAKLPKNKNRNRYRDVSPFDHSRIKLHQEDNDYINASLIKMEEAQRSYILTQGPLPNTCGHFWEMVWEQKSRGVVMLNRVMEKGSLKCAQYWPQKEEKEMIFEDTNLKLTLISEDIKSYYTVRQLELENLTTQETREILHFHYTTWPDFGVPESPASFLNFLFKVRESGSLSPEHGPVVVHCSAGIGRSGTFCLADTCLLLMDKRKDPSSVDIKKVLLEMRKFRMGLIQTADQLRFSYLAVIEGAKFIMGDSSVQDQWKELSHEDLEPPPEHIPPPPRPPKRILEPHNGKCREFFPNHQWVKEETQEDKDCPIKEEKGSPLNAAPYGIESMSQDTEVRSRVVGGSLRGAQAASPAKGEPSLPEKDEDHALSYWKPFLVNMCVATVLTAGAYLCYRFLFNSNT
# reported.conditions: recombinant PTP1B, malachite green phosphate detection
Friendly reminder: values = log10 of IC50, unit nM.

compound="COc1ccc(-c2ccc(-c3nc(-c4ccc(C(F)(F)F)cc4)oc3C)cc2)cc1 [Example 1]" recorded_result=3.22

Task item: Fill in the blank: the reported log10(IC50) of Cc1oc(-c2ccc(C(F)(F)F)cc2)nc1-c1ccc(-c2cc(Br)c(OCC(=O)O)c(Br)c2)cc1 [Example 10] is ____.
Reply: 2.67

Task item: Fill in the blank: the reported log10(IC50) of Cc1oc(-c2ccc(C(F)(F)F)cc2)nc1-c1ccc2c(Br)c(OCC(=O)O)ccc2c1 [Example 16] is ____.
Reply: 3.08
